assay.overview: ABTS•+ decolorization assay
Each record is given T if its reported ABTS•+ Inhb. % @ 100 μM is strictly below 80%. Records at or above 80% are given F.

* Nc1c2c(nc3ccccc13)CCCC2 [Tacrine, reference compound] | F
* O=C(/C=C/c1ccco1)c1ccc(O)cc1 [a10] | T
* CN(C)c1ccc(/C=C/C=C/C(=O)c2ccc(OCCCCCCCCOc3ccc(C(=O)/C=C/C=C/c4ccc(N(C)C)cc4)cc3)cc2)cc1 [evii] | F
* CN(C)c1ccc(/C=C/C=C/C(=O)c2ccc(OCCCCCOc3ccc(C(=O)/C=C/C=C/c4ccc(N(C)C)cc4)cc3)cc2)cc1 [eiv] | T
* O=C(/C=C/C=C/c1ccccc1)c1ccccc1O [b7] | T

----------
Test system: L929 mouse fibroblasts cells
assay.overview: Cytotoxicity, propidium iodide fluorescence method
Type: cell-based
reported.conditions: 50 μM, 24-h incubation
readout.label: 50 μM Average (% pi) ± σ

* Cc1ccc(/C=C/C(=O)c2ccc(O)cc2)o1 [a12] | 63.54 ± 6.16%
* CC(=O)c1ccc(OCCCCCCOc2ccc(C(C)=O)cc2)cc1 [dv] | 9.69 ± 0.57%
* O=C(/C=C/c1c[nH]c2ccccc12)c1ccc(OCCCOc2ccc(C(=O)/C=C/c3c[nH]c4ccccc34)cc2)cc1 [c6] | 3.03 ± 0.02%
* O=C(/C=C/C(Br)=C\c1ccccc1)c1ccc(O)cc1 [a9] | 7.59 ± 0.13%
* O=C(/C=C/C=C/c1ccccc1)c1ccc(O)cc1 [a7] | 60.95 ± 0.01%
* CC(=O)c1ccc(OCCOc2ccc(C(C)=O)cc2)cc1 [di] | 33.22 ± 9.65%
* O=C(/C=C/c1cccs1)c1ccc(O)cc1 [a5] | 36.15 ± 2.33%
* CC(=O)c1ccc(OCCCCOc2ccc(C(C)=O)cc2)cc1 [diii] | 32.14 ± 6.99%
* CC(=O)c1ccc(OCCCCCOc2ccc(C(C)=O)cc2)cc1 [div] | 17.05 ± 1.46%
* O=C(/C=C/c1ccco1)c1ccc(OCCCOc2ccc(C(=O)/C=C/c3ccco3)cc2)cc1 [c10] | 32.11 ± 9.38%

----------
Tested on: L929 mouse fibroblasts cells
assay.overview: Cytotoxicity, propidium iodide fluorescence method
Format: cell-based
reported.conditions: 1 μM, 24-h incubation
readout.label: 1 μM Average (% pi) ± σ

• CC(/C=C/C(=O)c1ccc(O)cc1)=C\c1ccccc1 = 1.39 ± 0.1%
• O=C(/C=C/C=C/c1ccccc1)c1ccc(OCCCOc2ccc(C(=O)/C=C/C=C/c3ccccc3)cc2)cc1 = 22.5 ± 11.64%
• O=C(/C=C/C=C/c1ccc([N+](=O)[O-])cc1)c1ccc(OCCCOc2ccc(C(=O)/C=C/C=C/c3ccc([N+](=O)[O-])cc3)cc2)cc1 = 6.4 ± 0.4%
• CC(=O)c1ccc(OCCOc2ccc(C(C)=O)cc2)cc1 = 4.94 ± 1.02%

----------
assay.overview: ABTS•+ decolorization assay
readout.label: ABTS•+ Inhb. % @ 100 μM

* CC(=O)c1ccc(OCCCCCOc2ccc(C(C)=O)cc2)cc1 | No
* CC(=O)c1ccc(OCCCCCCCOc2ccc(C(C)=O)cc2)cc1 | No
* O=C(/C=C/c1c[nH]c2ccccc12)c1ccc(OCCCOc2ccc(C(=O)/C=C/c3c[nH]c4ccccc34)cc2)cc1 | No
* CN(C)c1ccc(/C=C/C=C/C(=O)c2ccc(OCCCCCCOc3ccc(C(=O)/C=C/C=C/c4ccc(N(C)C)cc4)cc3)cc2)cc1 | 25%
* CN(C)c1ccc(/C=C/C=C/C(=O)c2ccc(OCCOc3ccc(C(=O)/C=C/C=C/c4ccc(N(C)C)cc4)cc3)cc2)cc1 | 98%
* O=C(/C=C/C1=C2C=CC=CC2NC1)c1ccc(O)cc1 (stereo not drawn) | No
* O=C(/C=C/c1ccccc1)c1ccc(O)cc1 | No
* O=C(/C=C/C=C/c1ccc([N+](=O)[O-])cc1)c1ccc(O)cc1 | 14%
* CC(=O)c1ccc(OCCCCOc2ccc(C(C)=O)cc2)cc1 | No
